experiment: Oral bioavailability in Sprague-Dawley rat at 10 mg/kg; assay type: ADME, organism-based; settings: in vivo
readout: bioavailability
Write your answer as a measured quantity: the number, then the unit.

Input line: Any idea what its bioavailability is? The compound is `CN1Cc2cc(N3CCOCC3)ccc2[C@@H](c2ccc3sccc3c2)C1`
Output line: 81%

----------
assay: Clearance in cynomolgus monkey at 2 mg/kg, po and 0.5 mg/kg, iv; format: ADME, organism-based, Macaca fascicularis; details: in vivo
readout: clearance (mL/min/kg)
Enter your answer as a number in mL/min/kg; do not include the unit.

Input line: Using the record for `CN1Cc2cc(N3CCOCC3)ccc2[C@@H](c2ccc3sccc3c2)C1` , report its clearance.
Output line: 27

----------
experiment: Ratio of drug uptake in brain to plasma of Sprague-Dawley rat at 10 mg/kg, po measured after 1 hr; assay type: ADME, organism-based; parameters: dose 10 mg/kg, route oral; conditions: read-out: BPR
readout: Kp at 1 h

Input line: Reported Kp at 1 h for `CN1Cc2cc(N3CCOCC3)ccc2[C@@H](c2ccc3sccc3c2)C1` : what is it?
Output line: 3

----------
experiment: Oral bioavailability at steady state in cynomolgus monkey at 2 mg/kg; type: ADME, organism-based, Macaca fascicularis; conditions: in vivo
readout: bioavailability
# number then unit; no other words

Input line: Bench note: what bioavailability did `CN1Cc2cc(N3CCOCC3)ccc2[C@@H](c2ccc3sccc3c2)C1` show?
Output line: 39%

----------
assay: Clearance in Sprague-Dawley rat at 10 mg/kg, po and 1 mg/kg, iv; assay type: ADME, organism-based; settings: in vivo
readout: clearance (mL/min/kg)
Lab book: enter the figure in mL/min/kg, no units written.

Input line: Which clearance value is on record for `CN1Cc2cc(N3CCOCC3)ccc2[C@@H](c2ccc3sccc3c2)C1` ?
Output line: 47

----------
assay: Volume of distribution at steady state in cynomolgus monkey at 2 mg/kg, po and 0.5 mg/kg, iv; format: ADME, organism-based, Macaca fascicularis; conditions: in vivo, read-out: Vdss
readout: Vd (L/kg)
All answers are understood in L/kg, so give the number only.

Input line: Suppose we examine the compound `CN1Cc2cc(N3CCOCC3)ccc2[C@@H](c2ccc3sccc3c2)C1` ; what Vd value has been reported?
Output line: 16

Reference for the values: ChEMBL document CHEMBL3351632
